Attribute: pIC50
ASSAYED_SYSTEM: His-EBNA1 (DNA binding domain of EBNA1, amino acids 459-607) (Epstein-Barr virus, UniProt P03211)
Sequence (P03211 459-607): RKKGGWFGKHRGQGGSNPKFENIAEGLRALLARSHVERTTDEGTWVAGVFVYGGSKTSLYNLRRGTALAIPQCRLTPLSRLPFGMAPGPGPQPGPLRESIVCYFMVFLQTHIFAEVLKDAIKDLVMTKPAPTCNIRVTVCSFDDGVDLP
pIC50: −log10 of the molar value.

>  <COMPOUND>
O=C(O)c1cccc(C#Cc2ccc(CO)cc2)c1-n1cccc1 [Entry 20]

>  <pIC50>
> 6.00

$$$$

**Query** Annotate the compound O=C(O)c1cccc(C#Cc2ccccn2)c1 [Entry 90, 3-[2-(pyridin-2-yl)ethynyl]benzoic acid] with its measured pIC50.
**Result** 3.00 to 4.00

**Query** Annotate the compound O=C(O)c1ccc(C#Cc2cccc(C(=O)O)c2-c2ccc3cc[nH]c3c2)cc1 [Entry 209] with its measured pIC50.
**Result** > 6.00

**Query** Annotate the compound O=C(O)c1cccc(C#Cc2cc(O)cc(F)c2)c1-n1cccc1 [Entry 38] with its measured pIC50.
**Result** > 6.00

**Query** Annotate the compound CN(C)C1CCN(c2c(C#Cc3ccccc3)cccc2C(=O)O)C1 (stereo not drawn) [Entry 103] with its measured pIC50.
**Result** 4.00 to 5.00

**Query** Annotate the compound O=C(O)c1cccc(C#Cc2ccncc2)c1-c1cc[nH]n1 [Entry 187] with its measured pIC50.
**Result** 4.00 to 5.00

**Query** Annotate the compound O=C(O)c1cccc(C#Cc2cnc3ccccn23)c1-n1cccc1 [Entry 12] with its measured pIC50.
**Result** > 6.00

**Query** Annotate the compound COc1cncc(-c2c(C#Cc3cccc(O)c3)cccc2C(=O)O)c1 [Entry 241] with its measured pIC50.
**Result** 4.00 to 5.00

**Query** Annotate the compound O=C(O)c1cccc(C#CCO)c1-c1ccccc1 [Entry 161] with its measured pIC50.
**Result** 3.00 to 4.00
